- protocol: Stereoselective hydrolysis of anticancer agent esters with normal rat muscle homogenate
- condition label: 12 hours at 30° C., pH 7.5
reported metric: enantiomer excess of the carboxylic acid produced by the hydrolysis

O=C(Oc1ccc(N(CCCl)CCCl)cc1)C(Cc1ccccc1)NC(=O)C(F)(F)F (racemic)    72.4 % e.e.
O=C(OC[C@H]1O[C@@H](n2cc(F)c(=O)[nH]c2=O)[C@H](O)[C@@H]1O)C(Cc1ccccc1)NC(=O)C(F)(F)F (stereo partly drawn)    87.8 % e.e.
CC(C(=O)OC[C@H]1O[C@@H](n2cc(F)c(=O)[nH]c2=O)[C@H](O)[C@@H]1O)c1ccccc1 (stereo partly drawn)    61.7 % e.e.

Lookup: enantiomer excess of the carboxylic acid produced by the hydrolysis lookup needed for COC(C(=O)OC[C@H]1O[C@@H](n2cc(F)c(=O)[nH]c2=O)[C@H](O)[C@@H]1O)c1ccccc1 (stereo partly drawn) , thanks.
Found: 18.5 % e.e.

Lookup: What value of measured enantiomer excess of the carboxylic acid produced by the hydrolysis is listed for CC(C(=O)Oc1ccc(N(CCCl)CCCl)cc1)c1ccccc1 (racemic) ?
Found: 1.8 % e.e.

Lookup: Which enantiomer excess of the carboxylic acid produced by the hydrolysis value is on record for COC(C(=O)Oc1ccc(N(CCCl)CCCl)cc1)c1ccccc1 (racemic) ?
Found: 46.0 % e.e.

The origin of these recorded values is patent US5808049A.
